Source listed as ChEMBL document CHEMBL5244275.

Each entry below carries its recorded half-life.
Assay Remarks: Stability of the compound at pH 8 assessed as compound hydrolysis by measuring half-life
Format: physicochemical
Measurement Parameters: buffer
Could you give me the number in h? Just the number is fine.

                                   molecule  measure_name  observed_result
0  CC[C@@H]1C(=O)N(C(C)=O)[C@H]1OC(C)=O (racemic)     half-life              2.4

As a next step, examine the molecule that follows.
# return recorded half-life for entry "CC[C@@H]1C(=O)N(C(C)=O)[C@H]1Oc1ccc(C(=O)O)cc1" 8.6

* * *

Each entry below carries its recorded Ki.
Target Or Test System: Hepatitis C virus serine protease, NS3/NS4A (Hepatitis C virus, UniProt A3EZI9+D2K2A8)
Sequence (D2K2A8 whole entry): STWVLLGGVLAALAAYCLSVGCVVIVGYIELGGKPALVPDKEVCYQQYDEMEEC
Sequence (A3EZI9 whole entry): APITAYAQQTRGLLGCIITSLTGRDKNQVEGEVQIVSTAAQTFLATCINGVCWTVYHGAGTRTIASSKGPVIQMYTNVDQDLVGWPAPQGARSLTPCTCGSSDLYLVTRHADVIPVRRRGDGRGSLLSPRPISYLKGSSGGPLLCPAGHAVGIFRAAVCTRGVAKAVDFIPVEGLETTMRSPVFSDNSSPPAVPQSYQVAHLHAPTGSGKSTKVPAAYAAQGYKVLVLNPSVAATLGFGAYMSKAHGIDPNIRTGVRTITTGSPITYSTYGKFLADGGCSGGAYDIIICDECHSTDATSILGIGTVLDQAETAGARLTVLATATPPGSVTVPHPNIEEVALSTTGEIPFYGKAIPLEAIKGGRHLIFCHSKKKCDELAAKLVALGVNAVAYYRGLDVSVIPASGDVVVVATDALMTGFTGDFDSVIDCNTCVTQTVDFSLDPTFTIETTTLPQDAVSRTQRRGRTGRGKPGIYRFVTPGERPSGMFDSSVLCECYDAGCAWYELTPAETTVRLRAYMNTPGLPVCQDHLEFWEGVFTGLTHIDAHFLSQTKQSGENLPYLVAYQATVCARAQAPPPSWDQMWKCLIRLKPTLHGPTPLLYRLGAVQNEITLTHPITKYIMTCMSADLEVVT
Assay Remarks: Inhibition of Hepatitis C virus NS4A-NS3 protease by continuous assay
Could you give me the number in nM? Just the number is fine.

# return recorded Ki for entry "CCC[C@H](NC(=O)[C@@H]1[C@H]2O[C@H]3CCCOc4cccc(c4)CC(=O)N[C@@H](C4CCCCC4)CN1C[C@@H]2O3)C(=O)C(=O)NCC(=O)N[C@H](C(=O)OC(C)(C)C)c1ccccc1" 38

# return recorded Ki for entry "CCC[C@H](NC(=O)[C@@H]1[C@H]2O[C@H]3CCCOc4cccc(c4)CC(=O)N[C@@H](C4CCCCC4)CN1C[C@@H]2O3)C(=O)C(=O)NCC(=O)N[C@H](C(=O)O)c1ccccc1" 38

* * *

Test system: Plasmodium falciparum
Assay Remarks: Antiplasmodial activity against Plasmodium falciparum W2 assessed as inhibition of parasite growth
Format: functional, organism-based
Each entry below carries its recorded pIC50.
Reminder that pIC50 is minus the log10 of a molar concentration.

>>> df
                              line_notation  measure_name  observed_result
0  C[C@H]1[C@@H](O)O[C@@H]2O[C@@]3(C)CC[C@H]4[C@H](C)CC[C@@H]1[C@@]24OO3         pIC50             9.35
1  C[C@@H]1CC[C@H]2[C@@H](C)C(=O)O[C@@H]3O[C@@]4(C)CC[C@@H]1[C@]32OO4         pIC50             8.55

Give Plasmodium falciparum pIC50 for the following compound: "C[C@@H]1CC[C@H]2[C@@H](C)[C@](O)(C(F)(F)F)O[C@@H]3O[C@@]4(C)CC[C@@H]1[C@]32OO4" 8.59

* * *

Assay Remarks: Drug metabolism at pH 2 assessed as parent compound remaining measured after 120 mins
Assay type: physicochemical
Measurement Parameters: read-out: Drug metabolism
Measure Name: remaining at 2 h (%)
Could you give me the number in %? Just the number is fine.

# return recorded remaining at 2 h for entry "c1ccc([C@]23OC[C@H](CCn4c2nc2ccccc24)O3)cc1" 93.5

* * *

Assay Remarks: Aqueous solubility of compound
Assay type: physicochemical
Measurement Parameters: aqueous (not further specified)
Each entry below carries its recorded solubility.
Could you give me the number in mg/mL? Just the number is fine.

>>> print(df.to_string())
                                   molecule  measure_name  unit_string  observed_result
0  CC(C)[C@H](N)C(=O)OCC(CO)OCn1cnc2c(=O)nc(N)[nH]c21 (some centres undefined) [VALGANCICLOVIR]    solubility        mg/mL               70

As a next step, examine the molecule that follows.
# return recorded solubility for entry CC(C)[C@H](N)C(=O)OCCOCn1cnc2c(=O)[nH]c(N)nc21 [VALACYCLOVIR] 174

* * *

Assay Remarks: Terminal half-life in iv dosed rhesus monkey
Format: ADME, organism-based, Macaca mulatta
Measurement Parameters: in vivo, read-out: beta t1/2 (converted)
Measure Name: half-life (h)
Could you give me the number in h? Just the number is fine.

# return recorded half-life for entry "CCC[C@@H](NC(=O)N1C(=O)C(CC)(CC)[C@@H]1Oc1ccc(CC(=O)O)cc1)c1ccc(C)cc1" 5.8

* * *

Assay Remarks: Clearance in dog plasma assessed as half-life
Format: ADME, cell-free, Canis lupus familiaris
Measure Name: half-life (h)
Could you give me the number in h? Just the number is fine.

# return recorded half-life for entry "CCOc1ccc(Cc2cc([C@]34OC[C@](CO)(O3)[C@@H](O)[C@H](O)[C@H]4O)ccc2Cl)cc1" 7.6

* * *

Assay Remarks: Half-life in human
Assay type: ADME
Measure Name: half-life (h)
Could you give me the number in h? Just the number is fine.

# count of solved cases: 3
>>> print(df.to_string())
                                   compound  unit_string  observed_result
0  C[C@@H]1CCO[C@H]2Cn3cc(C(=O)NCc4ccc(F)cc4F)c(=O)c(O)c3C(=O)N12 [DOLUTEGRAVIR]            h               14
1  O=C(NCc1c(F)cc(F)cc1F)c1cn2c(c(O)c1=O)C(=O)N1[C@H]3CC[C@H](C3)O[C@@H]1C2 [BICTEGRAVIR]            h               19
2  CN1CCN(C(=O)O[C@H]2c3nccnc3C(=O)N2c2ccc(Cl)cn2)CC1 [ESZOPICLONE]            h                5

# return recorded half-life for entry O=C1c2c(O)c(=O)ccn2N([C@@H]2c3ccccc3SCc3c2ccc(F)c3F)[C@@H]2COCCN12 [BALOXAVIR] 79

* * *

Assay Remarks: Drug recovery in mouse urine
Type: ADME
Measurement Parameters: pooled result: one value given for 8 cell lines, strains, targets or settings, read-out: Drug recovery
Measure Name: dose excreted (%)
Could you give me the number in %? Just the number is fine.

# return recorded dose excreted for entry "CC1(C)O[C@@H]2[C@@H](CC[C@@]3(COS(N)(=O)=O)OC(C)(C)O[C@@H]23)O1" 89

* * *

Assay Remarks: Inhibition of Acinetobacter baumannii beta-lactamase OXA-235
Each entry below carries its recorded pIC50.
Reminder that pIC50 is minus the log10 of a molar concentration.

In [3]: df
Out[3]:
                              line_notation  observed_result
0  C[C@]1(Cn2ccnn2)[C@H](C(=O)O)N2C(=O)C[C@H]2S1(=O)=O             5.31

As a next step, examine the compound that follows.
# return recorded pIC50 for entry "C[C@]1(COC(=O)Cc2ccc(O)c(O)c2)[C@H](C(=O)O)N2C(=O)/C(=C/c3ccccn3)[C@H]2S1(=O)=O" 8.10

* * *

Target Or Test System: Sterol O-acyltransferase 1 (Rattus norvegicus, UniProt O70536)
Sequence (O70536 whole entry): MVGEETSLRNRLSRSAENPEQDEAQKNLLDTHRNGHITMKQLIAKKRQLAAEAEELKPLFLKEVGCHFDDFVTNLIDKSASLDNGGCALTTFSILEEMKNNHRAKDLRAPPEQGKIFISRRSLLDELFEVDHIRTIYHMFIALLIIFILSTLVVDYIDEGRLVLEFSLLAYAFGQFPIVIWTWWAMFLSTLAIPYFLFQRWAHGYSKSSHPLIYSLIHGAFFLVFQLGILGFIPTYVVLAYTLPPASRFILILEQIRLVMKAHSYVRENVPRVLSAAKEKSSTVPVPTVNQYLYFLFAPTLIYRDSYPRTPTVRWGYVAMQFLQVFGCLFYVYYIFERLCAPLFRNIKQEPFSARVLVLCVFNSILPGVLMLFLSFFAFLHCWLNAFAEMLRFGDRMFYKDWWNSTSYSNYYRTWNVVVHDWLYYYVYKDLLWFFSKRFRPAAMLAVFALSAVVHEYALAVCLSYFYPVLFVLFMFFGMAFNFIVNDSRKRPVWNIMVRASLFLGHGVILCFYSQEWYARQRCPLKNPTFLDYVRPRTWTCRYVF
Measure Name: IC50 (nM)
Could you give me the number in nM? Just the number is fine.

# return recorded IC50 for entry "c1ccc(-c2nc(C3OCCCO3)[nH]c2-c2ccccc2)cc1" 110

* * *

Test system: Candida albicans
Assay Remarks: Antifungal activity against Candida albicans GS
Assay type: functional, organism-based
Numbered stars: 1 amine (or outer) side, 2 acyl side, 3 side chain; on linkers, the order of the positions; unused ones are H or OH. Bridge positions count the residues as written; N and C are the ends. Square brackets hold non-standard residues; d marks the D form. Peptide text beside a SMILES is read from it. * marks the point of attachment. Orn(4R-OH,5R-OH) = O=C([C@H](C[C@@H](O)[C@@H](O)N[*:3])N[*:1])[*:2]; Tetradecanoyl(10R,12S-Me2) = CC[C@H](C)C[C@H](C)CCCCCCCCC(=O)*; hTyr(3S-OH,4S-OH) = N[C@H](C(=O)O)[C@H](O)[C@@H](O)c1ccc(O)cc1; Gln(3R-OH) = NC(=O)C[C@@H](O)[C@H](N)C(=O)O; Pro(3S-OH) = O=C(O)[C@H]1NCC[C@@H]1O; Hyp = O=C(O)[C@@H]1C[C@@H](O)CN1
Measure Name: pIC50
Reminder that pIC50 is minus the log10 of a molar concentration.

# count of solved cases: 3
Molecule	pIC50
CC[C@H](C)C[C@H](C)CCCCCCCCC(=O)N[C@H]1C[C@@H](O)[C@@H](OCCN)NC(=O)[C@@H]2[C@@H](O)CCN2C(=O)[C@H]([C@H](O)CCN)NC(=O)[C@H]([C@H](O)[C@@H](O)c2ccc(O)cc2)NC(=O)[C@@H]2C[C@@H](O)CN2C(=O)[C@H]([C@@H](C)O)NC1=O	9.00
CC[C@H](C)C[C@H](C)CCCCCCCCC(=O)N[C@H]1C[C@@H](O)[C@@H](OCCN)NC(=O)[C@@H]2[C@@H](O)CCN2C(=O)[C@H]([C@H](O)CC(N)=O)NC(=O)[C@H]([C@H](O)[C@@H](O)c2ccc(O)cc2)NC(=O)[C@@H]2C[C@@H](O)CN2C(=O)[C@H]([C@@H](C)O)NC1=O	8.00
CC[C@H](C)C[C@H](C)CCCCCCCCC(=O)N[C@H]1C[C@@H](O)[C@@H](O)NC(=O)[C@@H]2[C@@H](O)CCN2C(=O)[C@H]([C@H](O)CC(N)=O)NC(=O)[C@H]([C@H](O)[C@@H](O)c2ccc(O)cc2)NC(=O)[C@@H]2C[C@@H](O)CN2C(=O)[C@H]([C@@H](C)O)NC1=O ({Tetradecanoyl(10R,12S-Me2)}-[Orn(4R-OH,5R-OH)]T[Hyp][hTyr(3S-OH,4S-OH)][Gln(3R-OH)][Pro(3S-OH)]; lactam 1-C)	7.15

# return recorded pIC50 for entry CC[C@H](C)C[C@H](C)CCCCCCCCC(=O)N[C@H]1C[C@@H](O)[C@@H](NCCN)NC(=O)[C@@H]2[C@@H](O)CCN2C(=O)[C@H]([C@H](O)CCN)NC(=O)[C@H]([C@H](O)[C@@H](O)c2ccc(O)cc2)NC(=O)[C@@H]2C[C@@H](O)CN2C(=O)[C@H]([C@@H](C)O)NC1=O [CASPOFUNGIN] 9.22
